// reported CC50 for each item listed
Assay: NOVARTIS: Cytotoxicity against human hepatocellular carcinoma cell line (Huh7)
Assay type: toxicity, cell-based, Huh-7
Settings: Huh7 cells (hepatocellular carcinoma cell line)

Worked cases, CC50 given:
>>> measuredvalue("COc1ccc(C2CC(=O)C3=C(C2)NC(C)=C(C(=O)OC(C)C)C3c2ccccc2F)cc1OC (stereo not given)")
"7.32 µM"
>>> measuredvalue("CC1(C)N=C(N)N=C(N)N1c1ccc(Br)cc1")
"> 10 µM"
>>> measuredvalue("O=C(Nc1ccc(C2=NCCN2)cc1)Nc1cccc(C(=O)Nc2ccc(C3=NCCN3)cc2)c1")
"> 10 µM"
>>> measuredvalue("CCN1CCN(c2cc(C)c(C#N)c3nc4ccccc4n23)CC1")
"> 100 µM"
>>> measuredvalue("O=C(NCc1ccc(Cl)cc1)C(=O)NCc1ccccn1")
"8.24 µM"

Which CC50 is listed for CCOC(=O)c1cnc2ccc(OC)cc2c1Cl ?
> 100 µM

Which CC50 is listed for COc1cc2nc(SCC(C)C)n(CCCn3ccnc3)c(=N)c2cc1OC ?
19.9 µM

Which CC50 is listed for OCC[n+]1c2ccccc2nc2ccc(N3CCOCC3)cc21.[O-][Cl+3]([O-])([O-])[O-] ?
35 µM

Which CC50 is listed for Cc1ccc(C)c(S(=O)(=O)N=C2C=C(SCC(=O)O)C(=O)c3ccccc32)c1 ?
17.7 µM

Which CC50 is listed for Brc1ccc2c(c1)c1ccccc1n2CC1CO1 (stereo not given) ?
29.4 µM

Which CC50 is listed for CCN1C(=O)N(CCC(C)C)C2(CCN(Cc3cc(Cl)ccc3O)CC2)C1=O ?
> 100 µM

Which CC50 is listed for COc1ccc(C2C(C(=O)Nc3cnc4ccccc4c3)c3ccccc3C(=O)N2Cc2ccc(F)cc2)cc1 (stereo not given) ?
> 100 µM

Which CC50 is listed for COc1ccc(CN2CCc3nnc(CCc4ccccc4)n3CC2)c(F)c1 ?
> 10 µM
